test system: Enterococcus faecalis; assay: Inhibitory activity against Enterococcus faecalis KU 1777; format: functional; settings: Enterococcus faecalis; read-out: MIC
Cut-off 30 mg/L on MIC: below means MET, at or above means NOT MET.

Compound	Group label
Cn1cc(/C=C/c2cc(C3CCNCC3)nn2-c2cccc(Cl)c2)c2cc(Cl)ccc21	MET
COC(=O)C1CCCC(NCc2n[nH]c3cccc(OCc4ccc(Cl)c(Cl)c4)c23)C1 (stereo not drawn)	MET
COC(=O)C1CCCC(NCc2n[nH]c3cccc(OCc4ccc(C(C)(C)C)cc4)c23)C1 (stereo not drawn)	MET
COC(=O)[C@@H]1C[C@H](NCc2n[nH]c3cccc(OCc4ccc(C(C)(C)C)cc4)c23)CN1	NOT MET
CO[C@@H]1[C@@H](OC(N)=O)[C@@H](O)[C@H](Oc2ccc3c(O)c(NC(=O)c4ccc(O)c(CC=C(C)C)c4)c(=O)oc3c2C)OC1(C)C [NOVOBIOCIN]	MET
COC(=O)C1CCCC(NCc2cc(/C=C\c3ccc(Cl)c(Cl)c3)[nH]n2)C1 (stereo not drawn)	MET
CC(C)(C)c1ccc(COc2cccc3[nH]nc(CN[C@H]4CN[C@H](CO)C4)c23)cc1	NOT MET
COC(=O)C1CCCC(NCc2cc(/C=C/c3ccc(Cl)c(Cl)c3)[nH]n2)C1 (stereo not drawn)	MET
COC(=O)C1CCCC(Nc2[nH]nc3cccc(OCc4ccc(F)c(F)c4)c23)C1 (stereo not drawn)	NOT MET
COC(=O)C1CCCC(Nc2[nH]nc3cccc(OCc4ccc(C(C)(C)C)cc4)c23)C1 (stereo not drawn)	MET
COC(=O)C1CCCN(Cc2n[nH]c3cccc(OCc4ccc(C(C)(C)C)cc4)c23)C1 (stereo not drawn)	NOT MET
COC(=O)[C@@H]1C[C@@H](NCc2n[nH]c3cccc(OCc4ccc(C(C)(C)C)cc4)c23)CN1	NOT MET
CCOC(=O)C1CCCN(Cc2n[nH]c3cccc(OCc4ccc(C(C)(C)C)cc4)c23)C1 (stereo not drawn)	MET
COC(=O)C1CCCC(Nc2[nH]nc3cccc(OCc4ccccc4)c23)C1 (stereo not drawn)	NOT MET
COC(=O)C1CCCC(NCc2cc(/C=C/c3cn(C)c4ccc(Cl)cc34)[nH]n2)C1 (stereo in doubt; 7bb)	NOT MET
CC(C)(C)c1ccc(COc2cccc3[nH]nc(CN4CCNCC4)c23)cc1	MET
COC(=O)C1CCCC(Nc2[nH]nc3cccc(OCc4ccc(Cl)cc4)c23)C1 (stereo not drawn)	NOT MET
COC(=O)C1CN(Cc2n[nH]c3cccc(OCc4ccc(C(C)(C)C)cc4)c23)CCC1=O (stereo not drawn)	NOT MET

* * *

test system: Enterococcus faecalis; experiment: Inhibitory activity against Enterococcus faecalis KU 1777; format: functional; conditions: Enterococcus faecalis; read-out: MIC
Quantity kind: log10(MIC) (log10 of the value in µg/mL)

Compound	Quantity kind	Observed value
Clc1cccc(-n2nc(C3CCNCC3)cc2/C=C/c2c[nH]c3ccc(Cl)cc23)c1	log10(MIC)	0.30
c1ccc(COc2ccc(-c3cc(C4CCNCC4)[nH]n3)cc2)cc1	log10(MIC)	1.81
CCOC(=O)CCCNc1[nH]nc2cccc(OCc3ccc(C(C)(C)C)cc3)c12	log10(MIC)	1.20
COC(=O)C1CCN(Cc2n[nH]c3cccc(OCc4ccc(C(C)(C)C)cc4)c23)CC1	log10(MIC)	1.51
CNCc1n[nH]c2cccc(OCc3ccc(C(C)(C)C)cc3)c12	log10(MIC)	1.20
COC(=O)C1CCCC(Nc2[nH]nc3cccc(OCc4ccc(Cl)c(Cl)c4)c23)C1 (stereo not given)	log10(MIC)	0.60
CC(C)(C)c1ccc(COc2cccc3[nH]nc(CN[C@@H]4CN[C@H](CO)C4)c23)cc1	log10(MIC)	1.81

* * *

tested on: Staphylococcus aureus; test: Inhibitory activity against Staphylococcus aureus FDA 209P; type: functional; conditions: Staphylococcus aureus; read-out: MIC
Cut-off 20 µg/mL on MIC: below means true, at or above means false.

Compound	System tested	Group label
Cc1cc(=O)oc2cc(CCc3n[nH]c4cccc(OCc5ccc(C(C)(C)C)cc5)c34)ccc12	Staphylococcus aureus	false
COC(=O)C1CCCC(Nc2[nH]nc3cccc(OCc4ccccc4)c23)C1 (centres undefined)	Staphylococcus aureus	false
COC(=O)C1CCCC(NCc2n[nH]c3cccc(OCc4ccc(Cl)c(Cl)c4)c23)C1 (centres undefined)	Staphylococcus aureus	true
CCOC(=O)CCCNc1[nH]nc2cccc(OCc3ccc(C(C)(C)C)cc3)c12	Staphylococcus aureus	true
COC(=O)C1CCCC(Nc2[nH]nc3cccc(OCc4ccc(Cl)c(Cl)c4)c23)C1 (centres undefined)	Staphylococcus aureus	true
CCOC(=O)C1CCCN(Cc2n[nH]c3cccc(OCc4ccc(C(C)(C)C)cc4)c23)C1 (centres undefined)	Staphylococcus aureus	true
CC(C)(C)c1ccc(COc2cccc3[nH]nc(CN[C@@H]4CN[C@H](CO)C4)c23)cc1	Staphylococcus aureus	false
COC(=O)C1CCCC(NCc2cc(/C=C/c3cn(C)c4ccc(Cl)cc34)[nH]n2)C1 (stereo in doubt; 7bb)	Staphylococcus aureus	true
COC(=O)C1CCCC(NCc2cc(/C=C\c3ccc(Cl)c(Cl)c3)[nH]n2)C1 (centres undefined)	Staphylococcus aureus	true
COC(=O)C1CCCC(Nc2[nH]nc3cccc(OCc4cnc(Cl)c(Cl)c4)c23)C1 (centres undefined)	Staphylococcus aureus	false
CNCc1n[nH]c2cccc(OCc3ccc(C(C)(C)C)cc3)c12	Staphylococcus aureus	false
CC(C)(C)c1ccc(COc2cccc3[nH]nc(CN[C@H]4CN[C@H](CO)C4)c23)cc1	Staphylococcus aureus	false
COC(=O)C1CN(Cc2n[nH]c3cccc(OCc4ccc(C(C)(C)C)cc4)c23)CCC1=O (centres undefined)	Staphylococcus aureus	false
Cn1cc(/C=C/c2cc(C3CCNCC3)nn2-c2cccc(Cl)c2)c2cc(Cl)ccc21	Staphylococcus aureus	true
COC(=O)C1CCN(Cc2n[nH]c3cccc(OCc4ccc(C(C)(C)C)cc4)c23)CC1	Staphylococcus aureus	false
COC(=O)C1CCCC(NCc2cc(/C=C\c3cn(C)c4ccc(Cl)cc34)[nH]n2)C1 (stereo in doubt; 8ba)	Staphylococcus aureus	true
COC(=O)C1CCCC(NCc2n[nH]c3cccc(OCc4ccc(C(C)(C)C)cc4)c23)C1 (centres undefined)	Staphylococcus aureus	true
COC(=O)[C@@H]1C[C@@H](NCc2n[nH]c3cccc(OCc4ccc(C(C)(C)C)cc4)c23)CN1	Staphylococcus aureus	false
CC(C)(C)c1ccc(COc2cccc3[nH]nc(CN4CCNCC4)c23)cc1	Staphylococcus aureus	true
COC(=O)C1CCCC(NCc2cc(/C=C/c3ccc(Cl)c(Cl)c3)[nH]n2)C1 (centres undefined)	Staphylococcus aureus	true
CC(C)(C)c1ccc(COc2cccc3[nH]nc(NCCCC(=O)O)c23)cc1	Staphylococcus aureus	false
Clc1cccc(-n2nc(C3CCNCC3)cc2/C=C/c2c[nH]c3ccc(Cl)cc23)c1	Staphylococcus aureus	true
COC(=O)C1CCCC(Nc2[nH]nc3cccc(OCc4ccc(Cl)cc4)c23)C1 (centres undefined)	Staphylococcus aureus	false
c1ccc(COc2ccc(-c3cc(C4CCNCC4)[nH]n3)cc2)cc1	Staphylococcus aureus	false
COC(=O)[C@@H]1C[C@H](NCc2n[nH]c3cccc(OCc4ccc(C(C)(C)C)cc4)c23)CN1	Staphylococcus aureus	false
CO[C@@H]1[C@@H](OC(N)=O)[C@@H](O)[C@H](Oc2ccc3c(O)c(NC(=O)c4ccc(O)c(CC=C(C)C)c4)c(=O)oc3c2C)OC1(C)C	Staphylococcus aureus	true
COC(=O)C1CCCC(Nc2[nH]nc3cccc(OCc4ccc(F)c(F)c4)c23)C1 (centres undefined)	Staphylococcus aureus	false
COC(=O)C1CCCN(Cc2n[nH]c3cccc(OCc4ccc(C(C)(C)C)cc4)c23)C1 (centres undefined)	Staphylococcus aureus	false
COC(=O)C1CCCC(Nc2[nH]nc3cccc(OCc4ccc(C(C)(C)C)cc4)c23)C1 (centres undefined)	Staphylococcus aureus	true

* * *

target: DNA gyrase (Escherichia coli, UniProt P0AES6+P0AES4); test: Inhibitory activity against Escherichia coli DNA gyrase; type: protein-complex assay

Compound	IC50 [nM]
COC(=O)C1CCCC(NCc2cc(/C=C/c3cn(C)c4ccc(Cl)cc34)[nH]n2)C1 (stereo in doubt; 7ba)	2340

* * *

target: DNA gyrase (Escherichia coli, UniProt P0AES4+P0AES6); assay: Inhibitory activity against Escherichia coli DNA gyrase

Compound	Result unit	IC50
Clc1cccc(-n2nc(C3CCNCC3)cc2/C=C/c2c[nH]c3ccc(Cl)cc23)c1	µM	32
COC(=O)C1CCCC(NCc2cc(/C=C\c3cn(C)c4ccc(Cl)cc34)[nH]n2)C1 (stereo in doubt; 8ba)	µM	2.34
COC(=O)C1CCCC(Nc2[nH]nc3cccc(OCc4ccc(F)c(F)c4)c23)C1 (stereo not given)	µM	38.5
Cc1cc(=O)oc2cc(CCc3n[nH]c4cccc(OCc5ccc(C(C)(C)C)cc5)c34)ccc12	µM	0.536
COC(=O)C1CCCC(Nc2[nH]nc3cccc(OCc4cnc(Cl)c(Cl)c4)c23)C1 (stereo not given)	µM	142
COC(=O)[C@@H]1C[C@@H](NCc2n[nH]c3cccc(OCc4ccc(C(C)(C)C)cc4)c23)CN1	µM	18.3
COC(=O)C1CCCC(Nc2[nH]nc3cccc(OCc4ccccc4)c23)C1 (stereo not given)	µM	21.1
c1ccc(COc2ccc(-c3cc(C4CCNCC4)[nH]n3)cc2)cc1	µM	384
Cn1cc(/C=C/c2cc(C3CCNCC3)nn2-c2cccc(Cl)c2)c2cc(Cl)ccc21	µM	31
COC(=O)C1CCCC(NCc2cc(/C=C\c3cn(C)c4ccc(Cl)cc34)[nH]n2)C1 (stereo in doubt; 8bb)	µM	1.17
CC(C)(C)c1ccc(COc2cccc3[nH]nc(CN[C@@H]4CN[C@H](CO)C4)c23)cc1	µM	157
CCOC(=O)C1CCCN(Cc2n[nH]c3cccc(OCc4ccc(C(C)(C)C)cc4)c23)C1 (stereo not given)	µM	17.8
COC(=O)C1CCCC(NCc2cc(/C=C\c3ccc(Cl)c(Cl)c3)[nH]n2)C1 (stereo not given)	µM	39.2
COC(=O)C1CCCC(NCc2n[nH]c3cccc(OCc4ccc(C(C)(C)C)cc4)c23)C1 (stereo not given)	µM	8.9
COC(=O)C1CCCC(NCc2cc(/C=C/c3ccc(Cl)c(Cl)c3)[nH]n2)C1 (stereo not given)	µM	39.2
COC(=O)[C@@H]1C[C@H](NCc2n[nH]c3cccc(OCc4ccc(C(C)(C)C)cc4)c23)CN1	µM	18.3
COC(=O)C1CCCC(Nc2[nH]nc3cccc(OCc4ccc(C(C)(C)C)cc4)c23)C1 (stereo not given)	µM	9.18
CC(C)(C)c1ccc(COc2cccc3[nH]nc(NCCCC(=O)O)c23)cc1	µM	83.9
COC(=O)C1CN(Cc2n[nH]c3cccc(OCc4ccc(C(C)(C)C)cc4)c23)CCC1=O (stereo not given)	µM	8.9
CC(C)(C)c1ccc(COc2cccc3[nH]nc(CN[C@H]4CN[C@H](CO)C4)c23)cc1	µM	78.3
